tested on: FXR:RXRa (NR concentration 270 nM, RXRa partner concentration 90 nM); assay: PBM binding z-score (relative to random genomic background probes); higher = stronger binding; sequences stand for … in GC…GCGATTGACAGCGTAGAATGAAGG
Parameter PBM binding z-score: see the listing below.
Give the figure by itself; no unit, no explanation.

Please review the following examples before continuing.
CCTCGGAGGACAACAGTAGGTCAGAGCTGCCAGA: 0.249
AATACAGGGTCACTACGCCAGAGTAGGTACGAAT: 6.43
CCGACTGGGTCATAAGGTTACCATAAGCCAGCCC: 2.99

-- ask Name the reported PBM binding z-score value associated with the sequence `CGTCAAAGTTCAACTAAGGTAACGCAAAGCACGC`
-- reply 7.01

-- ask Next entry: `GGAACCAGGGCAAGTTGATAGCAGAGTTTGATGG`
-- reply 1.5

-- ask Next entry: `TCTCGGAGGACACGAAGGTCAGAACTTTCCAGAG`
-- reply 0.92

-- ask Next entry: `TGAATGACGTTATAAGATCAGGGAACGTTGCAAA`
-- reply -0.0798

-- ask Next entry: `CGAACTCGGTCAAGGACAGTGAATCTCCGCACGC`
-- reply 0.923

-- ask Next entry: `CAGCGTAGGTCAGGGCCAGTATAGGAGGAACGTT`
-- reply 1.79

-- ask Next entry: `TAGCCTAGGTCATTGGGCCAGTATCGTACGCATC`
-- reply 4.61

-- ask Next entry: `AGTCAAAGTTCACTAAGTAACGTAAGATTCAGCT`
-- reply 4.76

-- ask Next entry: `GCGACTGGAGCAAAGCAGGTTACCATAAGGTTGG`
-- reply -0.343

----------
tested on: LXRa:RXRa (NR concentration 270 nM, RXRa partner concentration 90 nM); assay: PBM binding z-score (relative to random genomic background probes); higher = stronger binding; sequences stand for … in GC…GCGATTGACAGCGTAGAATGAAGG
Parameter PBM binding z-score: see the listing below.
Give the figure by itself; no unit, no explanation.

Please review the following examples before continuing.
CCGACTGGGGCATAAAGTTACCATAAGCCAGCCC: -0.54
CAAACTAAGTCACGAAAGGTCAAAGTCGAATGAC: 6.68

-- ask Name the reported PBM binding z-score value associated with the sequence `TCGAGTAGCTTACCAATGGGGCATTCAGCTTTCT`
-- reply -0.514

----------
test system: PPARg DBDmut IVT, anti-PPARg (DBD mutation: PPARg1 K132A/R137A, NR concentration 270 nM); experiment: PBM binding z-score (relative to random genomic background probes); higher = stronger binding; sequences stand for … in GC…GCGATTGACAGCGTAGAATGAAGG
Please use 1 whenever PBM binding z-score is not below 0.9, and -1 whenever it is.

-- ask PBM binding z-score >= 0.9 for `ATCTCTACGTAAGACTCAGTTCAGTGAAGAACGC` ?
-- reply 1

-- ask Next entry: `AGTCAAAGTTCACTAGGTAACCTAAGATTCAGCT`
-- reply 1

-- ask Next entry: `TCAGACAGGTGAAGGTAACGCAGGTACGCAGTCG`
-- reply -1

-- ask Next entry: `GCTATTAGTTGAAAGGGCAATCGAATGATTCTCG`
-- reply -1

----------
test system: LXRa:RXRa (NR concentration 270 nM, RXRa partner concentration 90 nM); test: PBM binding z-score (relative to random genomic background probes); higher = stronger binding; sequences stand for … in GC…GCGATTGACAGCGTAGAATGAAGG
measurement_label: PBM binding z-score
Give the figure by itself; no unit, no explanation.

Please review the following examples before continuing.
TAGCCTAGGTCATGCGGGCCAGTATCGTGTCGGC: 3.03
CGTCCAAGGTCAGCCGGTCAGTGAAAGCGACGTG: 3.63
CTCGAAAGGTCGTGCTCAGGTGAGTATACCAAAC: 4.02
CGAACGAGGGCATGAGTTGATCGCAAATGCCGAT: 0.374

-- ask Name the reported PBM binding z-score value associated with the sequence `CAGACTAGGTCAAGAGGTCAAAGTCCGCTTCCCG`
-- reply 6.1

-- ask Next entry: `TGTTGTAGATCAAGCAGGTTAAGAAAGCCTGAGT`
-- reply -0.245

----------
Parameter PBM binding z-score: see the listing below.
system: LXRa:RXRa (NR concentration 270 nM, RXRa partner concentration 90 nM); test: PBM binding z-score (relative to random genomic background probes); higher = stronger binding; sequences stand for … in GC…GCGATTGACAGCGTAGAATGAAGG

Please review the following examples before continuing.
TTACCAAGGTGAAGGTCCTTGATCCCTCTGTAGA: 0.644
ATATGTAGCTTATCGGGTCATTCAGTTTGCGCAT: 2.21
CTCGAAAGGTCGTGCTCAGGTAAGTATACCAAAC: 4.11
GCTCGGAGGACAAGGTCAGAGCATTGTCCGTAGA: 1.75
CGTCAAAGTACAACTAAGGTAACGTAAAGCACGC: 0.122

Continue with the sequence presented below.
-- ask Name the reported PBM binding z-score value associated with the sequence `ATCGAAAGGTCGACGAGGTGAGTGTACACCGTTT`
-- reply 3.35

----------
system: RXRa DBDmut IVT, anti-RXR (DBD mutation: RXRa K156A/R161A, NR concentration 90 nM); test: PBM binding z-score (relative to random genomic background probes); higher = stronger binding; sequences stand for … in GC…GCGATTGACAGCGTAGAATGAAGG
measurement_label: PBM binding z-score

Please review the following examples before continuing.
CATCCAAGGTCAGAGAGGTCAGTGAATGCCGAGT: 3.51
TCGAGTAGATTACCAATGGGGCATTCAGCTTTCT: 0.278
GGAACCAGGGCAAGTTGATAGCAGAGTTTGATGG: 1.85

-- ask Name the reported PBM binding z-score value associated with the sequence `ATATGTAGGTTATGGGTCATTCAGGTTGGTTCGC`
-- reply 1.31

-- ask Next entry: `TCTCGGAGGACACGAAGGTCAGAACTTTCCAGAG`
-- reply 1.26

-- ask Next entry: `TCGAGTAGGTTAGTCGGGCCATTCAGCCAACATA`
-- reply -0.153

-- ask Next entry: `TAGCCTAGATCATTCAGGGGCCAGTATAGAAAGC`
-- reply -0.277

-- ask Next entry: `ATATGTAGGTTATAGGGTCATTCAGTTTGCGCAT`
-- reply 2.26

-- ask Next entry: `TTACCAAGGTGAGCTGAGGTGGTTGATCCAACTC`
-- reply -0.813

-- ask Next entry: `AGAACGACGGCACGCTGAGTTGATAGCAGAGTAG`
-- reply -0.569

-- ask Next entry: `TCTTGTAGATCAGCAGGTTAAGGAAGCTGGCCAA`
-- reply 0.474

-- ask Next entry: `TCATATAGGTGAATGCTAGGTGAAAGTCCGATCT`
-- reply 1.39

----------
tested on: RARb homodimer (NR concentration 270 nM); assay: PBM binding z-score (relative to random genomic background probes); higher = stronger binding; sequences stand for … in GC…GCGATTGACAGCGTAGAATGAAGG
Please use label 1 whenever PBM binding z-score is not below 2, and label 0 whenever it is.

CAAACTAGGTCACCGGAAGGTCAATGTCCGCATG: label 1

-- ask PBM binding z-score >= 2 for `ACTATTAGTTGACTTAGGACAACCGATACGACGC` ?
-- reply label 0

-- ask Next entry: `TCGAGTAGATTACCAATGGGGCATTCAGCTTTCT`
-- reply label 0

-- ask Next entry: `GGTACGAGGGCAAGTTGATAGCAGAGTTTGATGG`
-- reply label 0

-- ask Next entry: `ATATGTAGGTTAAGGGTAATTCAGGTTGGTTCGC`
-- reply label 0

-- ask Next entry: `CCTTACGGGTCAAGGTTTTAGCACGGGTGGTACG`
-- reply label 1

-- ask Next entry: `GATACAGGGTCAGCTAGAGGCCCGAGTATGGAAA`
-- reply label 1

-- ask Next entry: `CCTATTGGGCCAAAGGTCATTGATTCCAATGCTC`
-- reply label 1

----------
Parameter PBM binding z-score: see the listing below.
system: PPARg:RXRa 270nM:90nM, anti-RXR (NR concentration 270 nM, RXRa partner concentration 90 nM); assay: PBM binding z-score (relative to random genomic background probes); higher = stronger binding; sequences stand for … in GC…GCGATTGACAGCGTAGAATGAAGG

Please review the following examples before continuing.
CCGACTGGGGCAGAGAGGTTACCATACCATCCGG: 1.6
CGAACTAGGTCAAGGTCAGTGAATCTCCGCACGC: 6.93
AGAATGAGGTTATACGTAGATCAGGGATGAAAGT: 2.01
GCGACTGGGGCAAAGCAGGTTACCACAAGGTTGG: 1.34
CGTCCACGGTCATAGGAGGTCAGTGAAGACAGAT: 0.977

-- ask Name the reported PBM binding z-score value associated with the sequence `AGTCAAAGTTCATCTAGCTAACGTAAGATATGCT`
-- reply 6.05

-- ask Next entry: `CCTGCTAGGTCAAGGTCAGCTAATCTACAGTATG`
-- reply 4.63

-- ask Next entry: `CCCGAAAGGTCGGTTGAGGTGAGTATACGGATAA`
-- reply 1.12

-- ask Next entry: `TCGCGTAGGTTAGGGGCATTCAGAATGGCGTCGA`
-- reply 1.01

-- ask Next entry: `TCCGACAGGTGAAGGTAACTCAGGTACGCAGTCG`
-- reply 1.09

-- ask Next entry: `CCTTACGGGGCACTGACAGGTTATAGCATTTGGA`
-- reply -0.156

-- ask Next entry: `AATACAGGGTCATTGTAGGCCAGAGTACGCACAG`
-- reply 5.54
